# Test system: SLC16A11
# Assay Protocol: SLC16A11 protein-protein interaction study (immunoprecipitation, quantitative mass spectrometry)
# Set-up: species or system human
# Condition Label: putative SLC16A11^REF interaction partners; immunoprecipitation from HEK293T cells vs empty vector control; Blandt-Altman

Molecule: UBAC2 (protein) HCQKLFVYDLHAVKNDFQIWRLICGRIICLDLKDTFCSSLLIYNFRIFERRYGSRKFASFLLGSWVLSALFDFLLIEAMQYFFGITAASNLPSGFLAPVFALFVPFYCSIPRVQVAQILGPLSITNKTLIYILGLQLFTSGSYIWIVAISGLMSGLCYDSKMFQVHQVLCIPSWMAKFFSWTLEPIFSSSEPTSEARIGMGATLDIQRQQRMELLDRQLMFSQFAQGRRQRQQQGGMINWNRLFPPLRQRQNVNYQGGRQSEPAAPPLEVSEEQVARLMEMGFSRGDALEALRASNNDLNVATNFLLQH
BA log fold change: 1.21

Cited source: patent US11471462B2
